From: patent US20240343803A1

# tgt: T1, human PVRIG on FlpinCHO-PVRIG cells (human, UniProt Q6DKI7 41-326)
# T1 construct: whole, on cells
# T1 sequence (looked up): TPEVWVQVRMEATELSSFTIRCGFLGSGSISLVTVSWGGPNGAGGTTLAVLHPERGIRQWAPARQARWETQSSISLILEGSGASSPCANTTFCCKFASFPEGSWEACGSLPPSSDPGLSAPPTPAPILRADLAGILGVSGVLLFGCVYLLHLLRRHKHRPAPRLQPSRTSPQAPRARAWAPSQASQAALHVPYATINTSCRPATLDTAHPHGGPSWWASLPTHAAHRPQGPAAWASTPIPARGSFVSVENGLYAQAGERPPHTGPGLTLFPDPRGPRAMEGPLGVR
# assay protocol: FACS, FlpinCHO-PVRIG cells; AUC of MFI curve relative to SRF813-hIgG1
measurement label: % AUC to SRF813-hIgG1 (%)

INSERT INTO measurements (binder, result_number) VALUES
  ('PVRIG-A35 (Fc fusion, Alpaca VHH joined to human IgG1 Fc (VHH-hinge-CH2-CH3); not shown: human IgG1 hinge-CH2-CH3) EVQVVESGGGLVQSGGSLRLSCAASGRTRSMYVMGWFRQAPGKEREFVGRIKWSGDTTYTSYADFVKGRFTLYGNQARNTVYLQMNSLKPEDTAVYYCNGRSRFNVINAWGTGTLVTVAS', 134),
  ('PVRIG-A60 (Fc fusion, Alpaca VHH joined to human IgG1 Fc (VHH-hinge-CH2-CH3); not shown: human IgG1 hinge-CH2-CH3) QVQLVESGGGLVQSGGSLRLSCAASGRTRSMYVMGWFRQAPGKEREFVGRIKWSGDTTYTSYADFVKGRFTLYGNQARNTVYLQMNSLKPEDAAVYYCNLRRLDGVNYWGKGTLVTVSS', 68.6),
  ('PVRIG-A43 (Fc fusion, Alpaca VHH joined to human IgG1 Fc (VHH-hinge-CH2-CH3); not shown: human IgG1 hinge-CH2-CH3) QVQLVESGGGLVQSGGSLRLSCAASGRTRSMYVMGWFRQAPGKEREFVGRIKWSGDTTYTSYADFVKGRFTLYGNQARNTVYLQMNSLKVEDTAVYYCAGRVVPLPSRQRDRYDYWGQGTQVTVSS', 181),
  ('PVRIG-A50 (Fc fusion, Alpaca VHH joined to human IgG1 Fc (VHH-hinge-CH2-CH3); not shown: human IgG1 hinge-CH2-CH3) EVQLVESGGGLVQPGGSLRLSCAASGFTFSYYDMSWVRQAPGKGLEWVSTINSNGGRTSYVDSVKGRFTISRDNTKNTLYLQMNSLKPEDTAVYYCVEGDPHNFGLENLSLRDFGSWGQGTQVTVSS', 115),
  ('PVRIG-A104 (Fc fusion, Alpaca VHH joined to human IgG1 Fc (VHH-hinge-CH2-CH3); not shown: human IgG1 hinge-CH2-CH3) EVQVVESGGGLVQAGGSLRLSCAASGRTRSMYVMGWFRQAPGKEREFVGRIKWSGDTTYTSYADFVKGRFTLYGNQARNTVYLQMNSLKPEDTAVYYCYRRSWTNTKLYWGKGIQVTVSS', 23.9),
  ('PVRIG-A11 (Fc fusion, Alpaca VHH joined to human IgG1 Fc (VHH-hinge-CH2-CH3); not shown: human IgG1 hinge-CH2-CH3) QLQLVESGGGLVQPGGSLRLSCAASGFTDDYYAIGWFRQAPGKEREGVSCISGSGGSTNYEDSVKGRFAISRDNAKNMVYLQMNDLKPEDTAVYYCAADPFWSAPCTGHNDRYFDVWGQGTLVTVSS', 143),
  ('PVRIG-A118 (Fc fusion, Alpaca VHH joined to human IgG1 Fc (VHH-hinge-CH2-CH3); not shown: human IgG1 hinge-CH2-CH3) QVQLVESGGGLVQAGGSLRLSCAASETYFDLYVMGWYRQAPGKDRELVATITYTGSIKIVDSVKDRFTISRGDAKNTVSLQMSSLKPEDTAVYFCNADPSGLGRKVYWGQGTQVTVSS', 232),
  ('PVRIG-A117 (Fc fusion, Alpaca VHH joined to human IgG1 Fc (VHH-hinge-CH2-CH3); not shown: human IgG1 hinge-CH2-CH3) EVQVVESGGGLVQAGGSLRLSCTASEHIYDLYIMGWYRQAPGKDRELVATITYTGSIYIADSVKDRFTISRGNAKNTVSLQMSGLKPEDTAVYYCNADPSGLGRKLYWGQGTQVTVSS', 181);
